# Test system: myosin ATPase, Porcine Atria myofibrils
# METHOD: Myofibril ATPase assay, porcine atria myofibrils
# Format: biochemical
# SETUP_CONDITIONS: concentration required to reduce myosin ATP-ase activity by 25%; Porcine Atria Prep pCa 25 GEOM_MEAN
So basically: Porcine Atria EC25 (Y75 value) at 2 µM or higher? That is True. Lower than 2 µM? That is False.

## Input Determine whether measured Porcine Atria EC25 (Y75 value) meets or exceeds 2 µM for O=C(Cn1c(=O)[nH]c2ccccc2c1=O)N[C@@H]1CCCc2cc(F)cc(F)c21 (single isomer, unassigned)
## Output False

## Input Determine whether measured Porcine Atria EC25 (Y75 value) meets or exceeds 2 µM for C[C@H](NC(=O)Cn1c(=O)[nH]c2ccc(C#N)cc2c1=O)c1ncc(C#N)cc1F (single isomer, unassigned)
## Output False

## Input Determine whether measured Porcine Atria EC25 (Y75 value) meets or exceeds 2 µM for C[C@H](NC(=O)Cn1c(=O)[nH]c2ccccc2c1=O)c1ccccc1 (single isomer, unassigned)
## Output True

## Input Determine whether measured Porcine Atria EC25 (Y75 value) meets or exceeds 2 µM for Cc1ccc(C(NC(=O)Cn2c(=O)[nH]c3ccccc3c2=O)c2ccccc2)cc1C (stereo not drawn)
## Output True

## Input Determine whether measured Porcine Atria EC25 (Y75 value) meets or exceeds 2 µM for C[C@H](NC(=O)Cn1c(=O)[nH]c2cc(F)ccc2c1=O)c1ccc(F)cc1F
## Output True

## Input Determine whether measured Porcine Atria EC25 (Y75 value) meets or exceeds 2 µM for C[C@@H](NC(=O)Cn1c(=O)[nH]c2ccc(F)c(F)c2c1=O)c1ncc(C#N)cc1F (single isomer, unassigned)
## Output False

## Input Determine whether measured Porcine Atria EC25 (Y75 value) meets or exceeds 2 µM for COc1cccc(C(C)NC(=O)Cn2c(=O)[nH]c3ccccc3c2=O)c1 (stereo not drawn)
## Output True

## Input Determine whether measured Porcine Atria EC25 (Y75 value) meets or exceeds 2 µM for C[C@H](NC(=O)[C@H](Cc1ccccc1)n1c(=O)[nH]c2cccc(O)c2c1=O)c1ccc(F)cc1F
## Output True

## Input Determine whether measured Porcine Atria EC25 (Y75 value) meets or exceeds 2 µM for C[C@H](NC(=O)C1(n2c(=O)[nH]c3ccc(F)c(F)c3c2=O)CC1)c1ncc(C#N)cc1F (single isomer, unassigned)
## Output False

## Input Determine whether measured Porcine Atria EC25 (Y75 value) meets or exceeds 2 µM for C[C@H](NC(=O)Cn1c(=O)[nH]c2cc(C(F)(F)F)ccc2c1=O)c1ccc(F)cc1F
## Output True

## Input Determine whether measured Porcine Atria EC25 (Y75 value) meets or exceeds 2 µM for CC(NC(=O)Cn1c(=O)[nH]c2ccccc2c1=O)c1ccccc1Br (stereo not drawn)
## Output True

## Input Determine whether measured Porcine Atria EC25 (Y75 value) meets or exceeds 2 µM for COc1nccc2[nH]c(=O)n(CC(=O)N[C@@H](C)c3ccc(F)cc3F)c(=O)c12
## Output True

## Input Determine whether measured Porcine Atria EC25 (Y75 value) meets or exceeds 2 µM for Cc1c(F)ccc2[nH]c(=O)n(CC(=O)N[C@H]3CCc4cc(C#N)cnc43)c(=O)c12
## Output True

## Input Determine whether measured Porcine Atria EC25 (Y75 value) meets or exceeds 2 µM for CC(NC(=O)Cn1c(=O)[nH]c2ccccc2c1=O)c1ccco1 (stereo not drawn)
## Output True
